Quick list: pIC50 per entry.
Molecular target: dihydrolipoamide acyltransferase (DlaT) (Mycobacterium tuberculosis)
Sequence (P9WIS7 whole entry): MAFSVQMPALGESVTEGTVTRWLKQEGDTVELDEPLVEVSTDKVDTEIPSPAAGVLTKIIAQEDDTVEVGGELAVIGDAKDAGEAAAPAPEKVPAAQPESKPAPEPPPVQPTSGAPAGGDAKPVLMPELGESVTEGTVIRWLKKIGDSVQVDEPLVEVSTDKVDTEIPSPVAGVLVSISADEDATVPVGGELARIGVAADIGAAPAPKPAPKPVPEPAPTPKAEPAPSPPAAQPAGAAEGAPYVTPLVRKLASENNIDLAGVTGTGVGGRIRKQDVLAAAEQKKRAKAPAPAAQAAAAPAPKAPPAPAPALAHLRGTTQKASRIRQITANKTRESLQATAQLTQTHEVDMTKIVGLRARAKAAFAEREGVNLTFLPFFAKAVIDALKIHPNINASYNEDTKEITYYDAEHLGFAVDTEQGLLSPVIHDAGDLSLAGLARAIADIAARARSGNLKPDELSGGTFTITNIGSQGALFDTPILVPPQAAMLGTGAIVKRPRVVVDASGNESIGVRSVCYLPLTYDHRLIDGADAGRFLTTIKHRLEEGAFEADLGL
Assay: DlaT inhibition (Dlat IC50); DTNB peroxidase assay with Lpd, DlaT and AhpD
Format: biochemical
Conditions: Table 1, Compounds A1 to A294; read-out: Dlat IC50 category
pIC50: −log10 of the molar value.

Example entries begin here.
# compound, property_label, value_observed
records = [
    ("CSc1ccccc1-c1ccc(C=C2SC(=S)N(c3cc(C(=O)O)ccc3F)C2=O)o1 [Compound A186]", "pIC50", "> 5.00"),
    ("Cc1cc(Cl)ccc1-c1ccc(C=C2SC(=S)N(c3cccc(C(=O)O)c3)C2=O)o1 [Compound A169]", "pIC50", "> 5.00"),
    ("O=C(O)c1cc(N2C(=O)C(=Cc3ccc(-c4ccc(CSc5ccccc5)cc4)o3)SC2=S)ccc1O [Compound A62]", "pIC50", "4.40 to 4.96"),
    ("O=C(O)c1cccc(N2C(=O)C(=Cc3ccc(-c4ccc(Cl)cc4[N+](=O)[O-])o3)SC2=S)c1 [Compound A131]", "pIC50", "4.40 to 4.96"),
    ("NS(=O)(=O)c1cccc(N2C(=O)C(=Cc3ccc(-c4ccc(Cl)cc4)o3)SC2=S)c1 [Compound A27]", "pIC50", "> 5.00"),
    ("COc1ccc(-c2ccc(C=C3SC(=S)N(c4cccc(C(=O)O)c4)C3=O)o2)cc1F [Compound A177]", "pIC50", "> 5.00"),
]

Using known records, supply pIC50 for Cc1ccc(C(=O)O)cc1N1C(=O)C(=Cc2ccc(-c3ccc(C4CCCCC4)cc3)o2)SC1=S [Compound A82] > 5.00

Using known records, supply pIC50 for O=C(O)c1ccc(N2C(=O)C(=Cc3ccc(-c4ccc(Cl)cc4)o3)SC2=S)cc1 [Compound A20] > 5.00

---

Molecular target: UniProtKB P9WIS7
Test: DlaT inhibition (Dlat IC50); DTNB peroxidase assay with Lpd, DlaT and AhpD
Type: biochemical
Conditions: Dlat IC50 category
Quick list: IC50 per entry.

Example entries begin here.
# molecule, IC50
records = [
    ("O=C(O)C(Cc1ccc(O)c(O)c1)N1C(=O)C(=Cc2ccc(-c3ccccc3Cl)o2)SC1=S (stereo not drawn)", "11 to 40 µM"),
    ("CC(C)Cc1ccc(-c2ccc(C=C3SC(=S)N(C(C(=O)O)c4ccccc4)C3=O)o2)cc1 (stereo not drawn)", "< 10 µM"),
    ("O=C(O)C(Cc1ccc(O)cc1)N1C(=O)C(=Cc2ccc(-c3ccc(Cc4ccccc4)cc3)o2)SC1=S (stereo not drawn)", "< 10 µM"),
    ("CC(C)c1ccc(-c2ccc(C=C3SC(=S)N(C(Cc4ccc(O)c(O)c4)C(=O)O)C3=O)o2)cc1 (stereo not drawn)", "< 10 µM"),
    ("O=C(O)C(c1ccccc1)N1C(=O)C(=Cc2ccc(-c3ccc(Cl)c(Cl)c3)o2)SC1=S (stereo not drawn)", "< 10 µM"),
]

Using known records, supply IC50 for COc1ccc(C)cc1-c1ccc(C=C2SC(=S)N(C3CCC(C(=O)O)CC3)C2=O)o1 (stereo not drawn) 11 to 40 µM

Using known records, supply IC50 for CC(C)c1ccc(-c2ccc(C=C3SC(=S)N(C(Cc4ccccc4)C(=O)O)C3=O)o2)cc1 (stereo not drawn) < 10 µM

Using known records, supply IC50 for Cc1ccc(-c2ccc(C=C3SC(=S)N(Nc4ccccc4C(=O)O)C3=O)o2)c(C)c1 < 10 µM

Using known records, supply IC50 for CC(C)c1cccc(-c2ccc(C=C3SC(=S)N(C(Cc4ccccc4)C(=O)O)C3=O)o2)c1 (stereo not drawn) < 10 µM

Using known records, supply IC50 for O=C(O)C1CCC(N2C(=O)C(=Cc3ccc(-c4ccc(C(F)(F)F)cc4)o3)SC2=S)CC1 (stereo not drawn) 11 to 40 µM

Using known records, supply IC50 for O=C(O)c1ccccc1NN1C(=O)C(=Cc2ccc(-c3ccccc3-c3ccccc3)o2)SC1=S < 10 µM

Using known records, supply IC50 for COc1ccccc1-c1ccc(C=C2SC(=S)N(CC(=O)O)C2=O)o1 11 to 40 µM

Using known records, supply IC50 for O=C(O)c1ccc(NN2C(=O)C(=Cc3ccc(-c4ccccc4Cl)o3)SC2=S)cc1 11 to 40 µM

Using known records, supply IC50 for CC(C)C(C(=O)O)N1C(=O)C(=Cc2ccc(-c3ccccc3Cl)o2)SC1=S (stereo not drawn) < 10 µM

Using known records, supply IC50 for O=C(O)c1ccccc1NN1C(=O)C(=Cc2ccc(-c3cccc([N+](=O)[O-])c3)o2)SC1=S < 10 µM

Using known records, supply IC50 for CSc1ccccc1-c1ccc(C=C2SC(=S)N(C3CCC(C(=O)O)CC3)C2=O)o1 (stereo not drawn) < 10 µM

Using known records, supply IC50 for CNS(=O)(=O)c1ccc(-c2ccc(C=C3SC(=S)N(CCCC(=O)O)C3=O)o2)cc1 41 to 80 µM

Using known records, supply IC50 for CC(C(=O)O)N1C(=O)C(=Cc2ccc(-c3ccc(Cl)cc3)o2)SC1=S (stereo not drawn) < 10 µM

Using known records, supply IC50 for O=C(O)CCCCCN1C(=O)C(=Cc2ccc(-c3cc(C(F)(F)F)ccc3Cl)o2)SC1=S < 10 µM

Using known records, supply IC50 for O=C(O)CN1C(=O)C(=Cc2ccc(-c3ccc(Cc4ccccc4)cc3)o2)SC1=S < 10 µM

Using known records, supply IC50 for O=C1C(=Cc2ccc(-c3ccc(Cl)cc3)o2)SC(=S)N1C1CCC(O)CC1 (stereo not drawn) 11 to 40 µM

Using known records, supply IC50 for O=C(O)c1ccccc1NN1C(=O)C(=Cc2ccc(-c3ccccc3Cl)s2)SC1=S < 10 µM

Using known records, supply IC50 for COc1ccc(-c2ccc(C=C3SC(=S)N(C4CCCC(C(=O)O)C4)C3=O)o2)cc1F (stereo not drawn) < 10 µM

Using known records, supply IC50 for O=C(O)c1cccc(NN2C(=O)C(=Cc3ccc(-c4cccc(C(F)(F)F)c4)o3)SC2=S)c1 < 10 µM
